# measuredOn: BMX (Homo sapiens, UniProt P51813)
# Sequence (P51813 whole entry): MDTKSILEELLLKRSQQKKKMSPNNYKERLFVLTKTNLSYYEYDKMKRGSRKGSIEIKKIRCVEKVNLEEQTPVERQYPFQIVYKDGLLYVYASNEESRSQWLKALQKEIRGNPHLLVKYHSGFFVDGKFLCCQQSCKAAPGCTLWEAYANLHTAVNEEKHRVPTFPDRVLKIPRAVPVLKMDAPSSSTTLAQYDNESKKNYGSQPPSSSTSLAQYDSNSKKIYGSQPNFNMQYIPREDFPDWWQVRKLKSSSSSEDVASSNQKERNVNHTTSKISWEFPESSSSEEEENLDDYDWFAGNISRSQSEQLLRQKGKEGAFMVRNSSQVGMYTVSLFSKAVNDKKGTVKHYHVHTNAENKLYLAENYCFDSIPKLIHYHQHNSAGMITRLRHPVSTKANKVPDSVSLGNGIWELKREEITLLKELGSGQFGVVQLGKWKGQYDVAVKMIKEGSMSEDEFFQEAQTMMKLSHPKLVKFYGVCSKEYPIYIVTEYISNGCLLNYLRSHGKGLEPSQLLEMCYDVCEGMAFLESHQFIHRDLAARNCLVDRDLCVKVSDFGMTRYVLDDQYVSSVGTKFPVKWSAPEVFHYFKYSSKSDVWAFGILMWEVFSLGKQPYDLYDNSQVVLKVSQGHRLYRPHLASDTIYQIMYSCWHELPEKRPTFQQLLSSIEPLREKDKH
pIC50: −log10 of the molar value.
observationType: pIC50

Given Nc1c(N2CCN(C3CCCCC3)CC2)cc(Nc2ccc(C(=O)O)cc2)c2c1C(=O)c1ccccc1C2=O [Compound 12] , state its recorded pIC50.
< 5.00

====

# measuredOn: PKCtheta (Homo sapiens, UniProt Q04759)
# Sequence (Q04759 whole entry): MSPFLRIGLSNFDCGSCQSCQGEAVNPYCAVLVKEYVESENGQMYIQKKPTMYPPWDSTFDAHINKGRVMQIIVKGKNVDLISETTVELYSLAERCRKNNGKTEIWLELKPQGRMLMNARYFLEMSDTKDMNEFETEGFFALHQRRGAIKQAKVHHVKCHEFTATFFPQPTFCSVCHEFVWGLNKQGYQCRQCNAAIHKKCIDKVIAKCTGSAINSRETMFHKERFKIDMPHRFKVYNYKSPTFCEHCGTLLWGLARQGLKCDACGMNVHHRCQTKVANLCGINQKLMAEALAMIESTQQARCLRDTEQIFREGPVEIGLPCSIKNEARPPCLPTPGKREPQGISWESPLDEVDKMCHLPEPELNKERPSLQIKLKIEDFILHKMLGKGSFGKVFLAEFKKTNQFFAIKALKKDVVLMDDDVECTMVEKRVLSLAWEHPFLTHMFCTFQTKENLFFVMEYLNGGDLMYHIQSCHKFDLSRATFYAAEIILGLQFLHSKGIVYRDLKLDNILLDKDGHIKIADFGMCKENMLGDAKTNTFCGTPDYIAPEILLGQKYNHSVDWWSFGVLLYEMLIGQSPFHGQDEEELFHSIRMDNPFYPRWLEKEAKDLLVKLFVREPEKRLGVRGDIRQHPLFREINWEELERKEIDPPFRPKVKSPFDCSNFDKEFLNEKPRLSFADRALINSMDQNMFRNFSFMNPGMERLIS
# measurementNotes: radiometric kinase assay, other kinases: PKCtheta
# Format: biochemical
# details: duplicate
observationType: IC50

Consider the compound shown here: `Nc1c(N2CCN(C3CCCCC3)CC2)cc(Nc2ccc(C(=O)O)cc2)c2c1C(=O)c1ccccc1C2=O` What is its recorded IC50?
> 10 µM

====

# measuredOn: FLT1 (Homo sapiens, UniProt P17948)
# Construct: other kinases of recombinant human cytoplasmic domain
# Sequence (P17948 781-1338 limits assumed): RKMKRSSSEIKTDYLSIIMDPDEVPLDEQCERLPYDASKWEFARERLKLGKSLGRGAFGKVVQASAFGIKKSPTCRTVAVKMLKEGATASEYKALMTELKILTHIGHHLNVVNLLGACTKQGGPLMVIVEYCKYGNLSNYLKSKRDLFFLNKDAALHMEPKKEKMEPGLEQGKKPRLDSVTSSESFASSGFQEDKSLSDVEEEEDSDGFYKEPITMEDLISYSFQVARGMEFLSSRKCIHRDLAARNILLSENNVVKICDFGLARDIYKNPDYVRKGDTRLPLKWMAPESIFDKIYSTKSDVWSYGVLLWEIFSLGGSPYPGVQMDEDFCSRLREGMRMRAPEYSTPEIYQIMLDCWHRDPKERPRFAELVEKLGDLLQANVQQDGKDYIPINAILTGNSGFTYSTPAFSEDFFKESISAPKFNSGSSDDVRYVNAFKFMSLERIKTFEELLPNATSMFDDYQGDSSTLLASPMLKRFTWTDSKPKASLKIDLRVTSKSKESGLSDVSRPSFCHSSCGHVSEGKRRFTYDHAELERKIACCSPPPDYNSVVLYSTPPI
# measurementNotes: radiometric kinase assay, other kinases: FLT1
# details: duplicate
pIC50: −log10 of the molar value.
observationType: pIC50

Please provide the recorded pIC50 for `Nc1c(N2CCN(C3CCCCC3)CC2)cc(Nc2ccc(C(=O)O)cc2)c2c1C(=O)c1ccccc1C2=O` , tested on FLT1 (Homo sapiens, UniProt P17948).
< 5.00

====

# measurementNotes: Pharmacokinetics and bioavailability in CD-1 mice
# details: CD-1, mouse, in vivo, iv
observationType: half-life

Suppose we examine the compound `Nc1c(N2CCN(C3CCCCC3)CC2)cc(Nc2ccc(C(=O)O)cc2)c2c1C(=O)c1ccccc1C2=O` ; what half-life value has been reported?
~1 h

====

# measuredOn: PKCbetaII (Homo sapiens, UniProt P05771)
# Sequence (P05771 1-673 isoform P05771-2): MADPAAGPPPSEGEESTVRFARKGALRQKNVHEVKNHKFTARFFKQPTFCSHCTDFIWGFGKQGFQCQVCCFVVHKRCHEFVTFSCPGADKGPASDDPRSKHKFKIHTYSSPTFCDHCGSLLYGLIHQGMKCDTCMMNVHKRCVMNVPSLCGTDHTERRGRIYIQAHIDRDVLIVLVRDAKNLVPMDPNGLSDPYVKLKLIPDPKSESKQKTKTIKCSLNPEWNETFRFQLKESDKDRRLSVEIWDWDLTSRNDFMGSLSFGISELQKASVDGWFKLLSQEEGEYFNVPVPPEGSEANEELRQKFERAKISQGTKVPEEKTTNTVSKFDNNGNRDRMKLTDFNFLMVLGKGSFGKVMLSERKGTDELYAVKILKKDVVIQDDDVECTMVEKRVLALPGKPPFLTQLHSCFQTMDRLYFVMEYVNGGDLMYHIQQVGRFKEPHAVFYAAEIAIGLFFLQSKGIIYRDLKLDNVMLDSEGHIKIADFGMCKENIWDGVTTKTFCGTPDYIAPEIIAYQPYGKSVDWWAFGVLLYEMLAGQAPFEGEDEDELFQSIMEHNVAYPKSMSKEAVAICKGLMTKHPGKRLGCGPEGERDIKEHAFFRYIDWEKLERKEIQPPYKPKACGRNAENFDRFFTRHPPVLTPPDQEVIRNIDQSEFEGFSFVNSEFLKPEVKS
pIC50: −log10 of the molar value.
observationType: pIC50

Need pIC50 of Nc1c(N2CCN(C3CCCCC3)CC2)cc(Nc2ccc(C(=O)O)cc2)c2c1C(=O)c1ccccc1C2=O [Compound 12] , thanks.
< 5.00

====

# measuredOn: TGFbR2 (Homo sapiens)
# Construct: other kinases of recombinant human cytoplasmic domain
# Sequence (P37173 188-567 limits assumed): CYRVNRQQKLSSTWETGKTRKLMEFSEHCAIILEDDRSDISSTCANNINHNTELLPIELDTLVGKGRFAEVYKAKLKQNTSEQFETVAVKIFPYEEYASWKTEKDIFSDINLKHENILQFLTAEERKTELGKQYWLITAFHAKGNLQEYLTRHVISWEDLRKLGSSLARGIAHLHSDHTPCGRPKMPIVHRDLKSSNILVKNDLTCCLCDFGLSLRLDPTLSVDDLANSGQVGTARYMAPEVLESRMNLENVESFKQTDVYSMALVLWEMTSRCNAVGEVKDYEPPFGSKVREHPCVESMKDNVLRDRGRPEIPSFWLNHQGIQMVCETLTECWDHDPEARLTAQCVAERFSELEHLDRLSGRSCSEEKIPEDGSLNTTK
# measurementNotes: radiometric kinase assay, other kinases: TGFbR2
# details: duplicate
observationType: IC50

Field request: IC50 | item: Nc1c(N2CCN(C3CCCCC3)CC2)cc(Nc2ccc(C(=O)O)cc2)c2c1C(=O)c1ccccc1C2=O [Compound 12]
> 10 µM

====

# measuredOn: EPHA1 (Homo sapiens, UniProt P21709)
# Construct: other kinases of recombinant human cytoplasmic domain
# Sequence (P21709 569-976 limits assumed): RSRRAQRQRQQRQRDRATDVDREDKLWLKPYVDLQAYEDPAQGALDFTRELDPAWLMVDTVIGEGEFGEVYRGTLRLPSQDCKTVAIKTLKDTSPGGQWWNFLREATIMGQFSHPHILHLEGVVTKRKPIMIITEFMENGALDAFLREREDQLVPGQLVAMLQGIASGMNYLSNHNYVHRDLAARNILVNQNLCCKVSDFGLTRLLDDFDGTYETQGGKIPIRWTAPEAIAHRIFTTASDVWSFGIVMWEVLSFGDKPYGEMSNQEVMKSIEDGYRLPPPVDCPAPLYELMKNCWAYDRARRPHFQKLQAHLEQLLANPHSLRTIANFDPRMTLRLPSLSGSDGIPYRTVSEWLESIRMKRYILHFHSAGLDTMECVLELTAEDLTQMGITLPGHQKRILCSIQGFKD
# measurementNotes: radiometric kinase assay, other kinases: EPHA1
# details: duplicate
observationType: IC50

Field request: IC50 | item: `Nc1c(N2CCN(C3CCCCC3)CC2)cc(Nc2ccc(C(=O)O)cc2)c2c1C(=O)c1ccccc1C2=O`
> 10 µM

====

# measurementNotes: Pharmacokinetics and bioavailability in CD-1 mice
# details: mouse, in vivo, ip; CD-1 mice, 50 mg/kg i.p. dosing; read-out: i.p. bioavailability
# Procedure: Pharmacokinetic and bioavailabilities after oral and intraperitoneal (i.p.) treatment bioavailability in CD-1 mice. Pharmacokinetics and bioavailability of after oral and i.p. treatment in CD-1 mice (n=4 per dose group) are determined.
observationType: bioavailability

GET /values?readout=bioavailability&item= Nc1c(N2CCN(C3CCCCC3)CC2)cc(Nc2ccc(C(=O)O)cc2)c2c1C(=O)c1ccccc1C2=O [Compound 12]
~100%

====

# measuredOn: MLK1/MAP3K9 (Homo sapiens, UniProt P80192)
# Sequence (P80192 whole entry): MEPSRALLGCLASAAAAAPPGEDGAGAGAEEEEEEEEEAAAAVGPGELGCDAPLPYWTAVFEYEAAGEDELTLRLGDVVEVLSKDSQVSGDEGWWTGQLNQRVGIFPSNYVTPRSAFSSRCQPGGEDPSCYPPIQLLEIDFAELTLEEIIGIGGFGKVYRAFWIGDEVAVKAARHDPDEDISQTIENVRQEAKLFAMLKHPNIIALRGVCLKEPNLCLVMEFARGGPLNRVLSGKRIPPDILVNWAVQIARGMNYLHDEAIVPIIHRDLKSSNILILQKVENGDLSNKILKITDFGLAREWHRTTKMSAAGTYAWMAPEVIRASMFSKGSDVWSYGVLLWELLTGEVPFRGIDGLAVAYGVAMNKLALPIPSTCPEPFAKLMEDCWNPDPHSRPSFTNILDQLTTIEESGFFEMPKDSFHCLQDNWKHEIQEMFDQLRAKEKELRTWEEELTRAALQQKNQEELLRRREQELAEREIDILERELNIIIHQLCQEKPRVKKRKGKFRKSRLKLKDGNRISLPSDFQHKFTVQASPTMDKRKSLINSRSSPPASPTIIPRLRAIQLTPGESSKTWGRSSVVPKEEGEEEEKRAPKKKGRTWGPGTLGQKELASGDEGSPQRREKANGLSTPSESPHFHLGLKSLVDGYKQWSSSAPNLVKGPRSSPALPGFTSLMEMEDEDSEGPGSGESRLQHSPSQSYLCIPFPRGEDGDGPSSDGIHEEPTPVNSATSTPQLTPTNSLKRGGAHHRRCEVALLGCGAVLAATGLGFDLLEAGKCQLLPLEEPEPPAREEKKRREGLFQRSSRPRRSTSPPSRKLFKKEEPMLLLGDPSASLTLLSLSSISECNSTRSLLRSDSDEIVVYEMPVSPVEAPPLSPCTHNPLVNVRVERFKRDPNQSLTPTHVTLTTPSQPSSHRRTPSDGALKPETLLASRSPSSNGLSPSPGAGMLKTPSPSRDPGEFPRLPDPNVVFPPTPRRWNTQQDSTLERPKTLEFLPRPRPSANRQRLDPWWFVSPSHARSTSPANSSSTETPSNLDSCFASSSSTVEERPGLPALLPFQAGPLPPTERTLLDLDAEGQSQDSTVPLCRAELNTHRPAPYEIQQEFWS
# measurementNotes: radiometric kinase assay, other kinases: MLK1/MAP3K9
# details: duplicate
# Description: Compound inhibition in a radiometric based mixed micelle assay: In a final reaction volume of 25 μL, TrkA (h) ([…]) is incubated with the kinase reaction buffer (20 mM HEPES (pH 7.5), 10 mM MgCl2, 1 mM EGTA, 0.02% Brij 35, 0.02 mg/ml BSA, 0.1 mM Na3VO4, 2 mM DTT, 1% DMSO), 0.2 mg/ml substrate PolyEY(4:1) and […], and [^33P-ATP](specific activity approx. 500 cpm/pmol, concentration as required). The reaction is initiated by the addition of the MgATP mix. […]
pIC50: −log10 of the molar value.
observationType: pIC50

Reported pIC50, molecule `Nc1c(N2CCN(C3CCCCC3)CC2)cc(Nc2ccc(C(=O)O)cc2)c2c1C(=O)c1ccccc1C2=O` : ____
< 5.00
